Consider the following compounds; for each one, report its melting point.

Which melting point value is on record for Cn1cc(/C=C/C(=O)c2cccc(Cl)c2)c2ccccc21 [Compound 24a] ? 173 to 175 °C

// melting point lookup, key: O=C(/C=C/c1cn(S(=O)(=O)c2ccccc2)c2ccccc12)c1ccc(C(F)(F)F)cc1 [Compound 28e] 167 to 170 °C

Which value of melting point has been reported for CCn1cc(/C=C/C(=O)c2ccc(Cl)cc2)c2ccccc21 [Compound 25b] in the records? 165 to 168 °C

Find the recorded melting point belonging to CCCn1cc(/C=C/C(=O)c2cccc(Cl)c2)c2ccccc21 [Compound 24c] and report it. 161 to 162 °C

So what's the measured melting point for this one? COc1ccc(C(=O)/C=C/c2cn(C)c3ccccc23)cc1 [Compound 26a] 160 to 162 °C
